experiment: Hydrolysis rate constant at pH 9.6; format: ADME; details: buffer
reported endpoint: k (h⁻¹)

| compound | units of measure | k |
| --- | --- | --- |
| CC1=C(C(=O)O)N2C(=O)[C@@H](NC(=O)[C@H](N)c3ccccc3)[C@H]2SC1 [CEPHALEXIN ANHYDROUS] | h⁻¹ | 0.058 |
| CC(=O)OCC1=C(C(=O)O)N2C(=O)C(NC(=O)Cc3cccs3)C2SC1 (stereo not drawn) | h⁻¹ | 0.147 |
| O=C(Cc1cccs1)NC1C(=O)N2C(C(=O)O)=C(CSC3=CCC=CC3)CSC12 (stereo not drawn) | h⁻¹ | 0.019 |
| Cc1nnc(SCC2=C(C(=O)O)N3C(=O)C(NC(=O)Cc4cccs4)C3SC2)s1 (stereo not drawn) | h⁻¹ | 0.12 |
| O=C(Cc1cccs1)NC1C(=O)N2C(C(=O)O)=C(CSc3c[nH]nn3)CSC12 (stereo not drawn) | h⁻¹ | 0.028 |
| Cc1nc(CC(=O)NC2C(=O)N3C(C(=O)O)=C(CSc4c[nH]nn4)CSC23)no1 (stereo not drawn) | h⁻¹ | 0.026 |
| CC1=C(C(=O)O)N2C(=O)C(NC(=O)Cc3ccccc3)C2SC1 (stereo not drawn) | h⁻¹ | 0.017 |
| CC(=O)OCC1=C(C(=O)O)N2C(=O)C(NC(=O)CSc3ccncc3)C2SC1 (stereo not drawn) | h⁻¹ | 0.157 |
| Cc1nnc(SCC2=C(C(=O)O)N3C(=O)[C@@H](NC(=O)Cn4cnnn4)[C@H]3SC2)s1 [CEFAZOLIN] | h⁻¹ | 0.107 |
| CC1=C(C(=O)O)N2C(=O)C(NC(=O)C(N)C3=CCC=CC3)C2SC1 (stereo not drawn) | h⁻¹ | 0.056 |

[1] Cn1nnnc1SCC1=C(C(=O)O)N2C(=O)C(NC(=O)C(C(=O)[O-])c3cccs3)C2SC1.[Na+] (stereo not drawn)
[2] O=C(Cc1cccs1)NC1C(=O)N2C(C(=O)[O-])=C(C[n+]3ccccc3)CSC12 (stereo not drawn)
[3] CCN(CC)C(=S)SCC1=C(C(=O)O)N2C(=O)C(NC(=O)Cc3cccs3)C2SC1 (stereo not drawn)
[4] CC1=C(C(=O)O)N2C(=O)C(NC(=O)Cc3noc(C)n3)C2SC1 (stereo not drawn)
[5] Cn1nnnc1SCC1=C(C(=O)O)N2C(=O)C(NC(=O)C(Br)c3cccs3)C2SC1 (stereo not drawn)
INPUT: # desc sort on k across 5 compounds Please list each label once, in the requested order.
OUTPUT: 2, 5, 1, 3, 4
(2: 0.53 h⁻¹, 5: 0.21 h⁻¹, 1: 0.122 h⁻¹, 3: 0.067 h⁻¹, 4: 0.021 h⁻¹)

[I] Cc1nc(CC(=O)NC2C(=O)N3C(C(=O)O)=C(CSc4nnc(C)o4)CSC23)no1 (stereo not drawn)
[II] NC(=O)c1ccc[n+](CC2=C(C(=O)[O-])N3C(=O)C(NC(=O)Cc4cccs4)C3SC2)c1 (stereo not drawn)
INPUT: Between I and II , which one shows the smaller k number? Return value: the label identifying the chosen record.
OUTPUT: I
